measured target: CCN2-EGFR (Homo sapiens) (UniProt P00533+P29279)
Sequence (P00533 whole entry, looked up, the tested form may be a part): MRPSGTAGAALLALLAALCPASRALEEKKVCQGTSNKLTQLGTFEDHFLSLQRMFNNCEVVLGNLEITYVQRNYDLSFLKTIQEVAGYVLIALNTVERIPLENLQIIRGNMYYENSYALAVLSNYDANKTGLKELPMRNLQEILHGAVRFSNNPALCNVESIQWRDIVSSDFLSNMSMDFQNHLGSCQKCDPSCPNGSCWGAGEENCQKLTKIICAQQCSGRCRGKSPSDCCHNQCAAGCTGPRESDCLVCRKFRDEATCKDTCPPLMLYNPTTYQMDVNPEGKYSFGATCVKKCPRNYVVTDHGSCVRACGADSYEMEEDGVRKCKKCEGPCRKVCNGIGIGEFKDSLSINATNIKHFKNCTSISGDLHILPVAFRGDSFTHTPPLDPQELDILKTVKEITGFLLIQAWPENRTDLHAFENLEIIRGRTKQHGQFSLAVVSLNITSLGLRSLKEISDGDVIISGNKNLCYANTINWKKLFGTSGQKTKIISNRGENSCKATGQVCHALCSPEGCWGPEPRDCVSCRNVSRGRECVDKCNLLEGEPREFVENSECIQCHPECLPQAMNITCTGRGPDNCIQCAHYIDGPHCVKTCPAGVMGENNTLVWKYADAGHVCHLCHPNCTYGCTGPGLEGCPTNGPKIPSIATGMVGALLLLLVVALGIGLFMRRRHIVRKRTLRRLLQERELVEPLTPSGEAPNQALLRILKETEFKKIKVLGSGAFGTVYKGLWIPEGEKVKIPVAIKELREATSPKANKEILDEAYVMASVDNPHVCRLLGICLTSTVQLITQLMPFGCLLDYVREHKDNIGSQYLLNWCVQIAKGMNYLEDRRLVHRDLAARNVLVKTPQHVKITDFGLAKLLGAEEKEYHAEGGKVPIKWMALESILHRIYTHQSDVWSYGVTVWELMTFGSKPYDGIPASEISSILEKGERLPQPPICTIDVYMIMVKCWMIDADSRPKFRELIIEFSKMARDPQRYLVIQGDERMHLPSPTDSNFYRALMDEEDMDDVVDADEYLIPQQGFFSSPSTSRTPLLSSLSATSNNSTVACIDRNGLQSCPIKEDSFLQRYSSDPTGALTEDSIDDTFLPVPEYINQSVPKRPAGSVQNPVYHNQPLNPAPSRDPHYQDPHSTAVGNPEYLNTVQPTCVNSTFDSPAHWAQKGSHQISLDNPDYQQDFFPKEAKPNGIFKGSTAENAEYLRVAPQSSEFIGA
Sequence (P29279 whole entry, looked up, the tested form may be a part): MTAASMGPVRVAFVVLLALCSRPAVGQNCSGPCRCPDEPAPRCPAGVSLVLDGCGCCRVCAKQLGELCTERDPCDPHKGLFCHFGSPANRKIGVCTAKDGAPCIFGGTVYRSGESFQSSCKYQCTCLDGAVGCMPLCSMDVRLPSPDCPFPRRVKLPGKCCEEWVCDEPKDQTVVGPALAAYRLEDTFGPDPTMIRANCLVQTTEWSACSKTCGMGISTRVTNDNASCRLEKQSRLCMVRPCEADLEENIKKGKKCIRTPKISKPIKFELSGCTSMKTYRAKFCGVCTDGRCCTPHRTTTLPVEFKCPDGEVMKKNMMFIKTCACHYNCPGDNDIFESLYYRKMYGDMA
test protocol: Inhibition of His-tagged full length human CCN2 CT domain/human Fc-tagged EGFR protein-protein interaction using TMB as chromogenic substrate at 100 uM incubated for 140 mins by microplate reader assay relative to control
Peptide text beside a SMILES is read from it.
measured attribute: inhibition (%)

// known answers, use as guide
CC(C)C[C@H](NC(=O)[C@@H](N)CC(C)C)C(=O)N[C@@H](C)C(=O)N[C@@H](CC(=O)O)C(=O)N[C@H](C(=O)N[C@H](C(=O)N[C@@H](Cc1c[nH]cn1)C(=O)N[C@@H](Cc1c[nH]cn1)C(=O)N[C@@H](CCCNC(=N)N)C(=O)N1CCC[C@H]1C(=O)N[C@@H](Cc1c[nH]c2ccccc12)C(=O)N[C@@H](C)C(N)=O)[C@@H](C)O)[C@@H](C)O (H-LLADTTHHRPWA-NH2) ... 14.2
C[C@@H](O)[C@H](N)C(=O)N[C@@H](Cc1c[nH]cn1)C(=O)N[C@@H](Cc1c[nH]cn1)C(=O)N[C@@H](CCCNC(=N)N)C(=O)N[C@@H](CCCCN)C(=O)N[C@@H](Cc1c[nH]c2ccccc12)C(=O)N[C@H](C(N)=O)[C@@H](C)O (H-THHRKWT-NH2) ... 11
C[C@@H](O)[C@H](N)C(=O)N[C@@H](Cc1c[nH]cn1)C(=O)N[C@@H](CCCCN)C(=O)N[C@@H](CCCNC(=N)N)C(=O)N1CCC[C@H]1C(=O)N[C@@H](Cc1c[nH]c2ccccc12)C(=O)N[C@H](C(N)=O)[C@@H](C)O (H-THKRPWT-NH2) ... 63.4
CC(C)C[C@H](NC(=O)[C@@H](N)CC(C)C)C(=O)N[C@@H](C)C(=O)N[C@@H](CC(=O)O)C(=O)N[C@H](C(=O)N[C@H](C(=O)N[C@@H](C)C(=O)N[C@@H](Cc1c[nH]cn1)C(=O)N[C@@H](CCCNC(=N)N)C(=O)N1CCC[C@H]1C(=O)N[C@@H](Cc1c[nH]c2ccccc12)C(=O)N[C@H](C(N)=O)[C@@H](C)O)[C@@H](C)O)[C@@H](C)O (H-LLADTTAHRPWT-NH2) ... 70.5
C[C@@H](O)[C@H](N)C(=O)N[C@@H](CCC(=O)O)C(=O)N[C@@H](Cc1c[nH]cn1)C(=O)N[C@@H](CCCNC(=N)N)C(=O)N1CCC[C@H]1C(=O)N[C@@H](Cc1c[nH]c2ccccc12)C(=O)N[C@H](C(N)=O)[C@@H](C)O (H-TEHRPWT-NH2) ... 11.5

A. C[C@@H](O)[C@H](N)C(=O)N[C@@H](Cc1c[nH]cn1)C(=O)N[C@@H](Cc1c[nH]cn1)C(=O)N[C@@H](CCCNC(=N)N)C(=O)N1CCC[C@H]1C(=O)N[C@@H](Cc1c[nH]c2ccccc12)C(=O)N[C@H](C(N)=O)[C@@H](C)O (H-THHRPWT-NH2)
B. C[C@@H](O)[C@H](NC(=O)[C@H](Cc1c[nH]c2ccccc12)NC(=O)[C@@H]1CCCN1C(=O)[C@H](CCCNC(=N)N)NC(=O)[C@H](Cc1c[nH]cn1)NC(=O)[C@@H](N)Cc1c[nH]cn1)C(N)=O (H-HHRPWT-NH2)
Prompt: Lab notebook, comparison: A versus B , higher inhibition goes to which? Pick one and reply with its label.
Response: A
